biological target: Peptidyl-prolyl cis-trans isomerase A (Homo sapiens); experiment: Inhibition of PPIase activity of Cyclophilin A by Spectrophotometry; conditions: read-out: IC50
pIC50: −log10 of the molar value. Where a SMILES comes first, the peptide text is derived from it.
recordedEndpoint: pIC50

{"compound": "N[C@@H](Cc1c[nH]c2ccccc12)C(=O)NCC(=O)N1CCC[C@H]1C(=O)O (H-Trp-Gly-Pro-OH)", "targetOfAssay": "Peptidyl-prolyl cis-trans isomerase A (Homo sapiens)", "recordedEndpoint": "pIC50", "quantitativeReadout": 7.48}

###

target: Peptidyl-prolyl cis-trans isomerase A (Homo sapiens, UniProt P62937); assay: Binding affinity to Cyclophilin A; settings: read-out: Kd
Sequence (P62937 whole entry): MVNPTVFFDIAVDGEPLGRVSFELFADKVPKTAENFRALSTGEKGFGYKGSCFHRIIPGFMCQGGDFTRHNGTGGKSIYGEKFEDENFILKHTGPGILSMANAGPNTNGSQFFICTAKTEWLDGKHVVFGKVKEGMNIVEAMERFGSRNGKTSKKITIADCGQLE
Where a SMILES comes first, the peptide text is derived from it.
recordedEndpoint: Kd (µM)

{"molecule": "N[C@@H](Cc1c[nH]c2ccccc12)C(=O)NCC(=O)N1CCC[C@H]1C(=O)O (H-Trp-Gly-Pro-OH)", "targetOfAssay": "Peptidyl-prolyl cis-trans isomerase A (Homo sapiens, UniProt P62937)", "resultUnit": "µM", "quantitativeReadout": 3.41}
